Source: patent US20090325978A1

Experiment: solubility of the compound represented by formula (1) in pH regulating solution, HPLC
Assay type: physicochemical
Conditions: aqueous with cosolvent or surfactant or cyclodextrin, thermodynamic from solid; pH 6.51; 50 mM citric acid pH regulator with sucrose and polyethylene glycol 600; 1 hour at 5° C.
Measurement name: solubility at 1 h

Qu. // lookup solubility at 1 h for CCC(O)C(C)C1OC1CC(C)(O)/C=C/C=C(\C)C1OC(=O)CC(O)CCC(C)(O)C(OC(=O)N2CCN(C3CCCCCC3)CC2)/C=C/C1C (stereo not shown)
Ans. > 2720 µg/mL

* * *

Experiment: solubility of the compound represented by formula (1) in pH regulating solution, HPLC
Assay type: physicochemical
Conditions: pH 6.2, aqueous with cosolvent or surfactant or cyclodextrin, thermodynamic from solid; pH 6.20; 50 mM citric acid pH regulator with sucrose and polyethylene glycol 600; 1 hour at 5° C.
Measurement name: solubility at 1 h

Qu. Which solubility at 1 h is reported for this molecule? CCC(O)C(C)C1OC1CC(C)(O)/C=C/C=C(\C)C1OC(=O)CC(O)CCC(C)(O)C(OC(=O)N2CCN(C3CCCCCC3)CC2)/C=C/C1C (stereo not shown)
Ans. > 2260 µg/mL
